Values from patent US8148391B2

Consider the following molecules; for each one, report its pIC50.
- Study system: baculovirus-expressed ALK (Homo sapiens)
- Construct: host or cells: baculovirus expression system
- Sequence (Q9UM73 19-1620): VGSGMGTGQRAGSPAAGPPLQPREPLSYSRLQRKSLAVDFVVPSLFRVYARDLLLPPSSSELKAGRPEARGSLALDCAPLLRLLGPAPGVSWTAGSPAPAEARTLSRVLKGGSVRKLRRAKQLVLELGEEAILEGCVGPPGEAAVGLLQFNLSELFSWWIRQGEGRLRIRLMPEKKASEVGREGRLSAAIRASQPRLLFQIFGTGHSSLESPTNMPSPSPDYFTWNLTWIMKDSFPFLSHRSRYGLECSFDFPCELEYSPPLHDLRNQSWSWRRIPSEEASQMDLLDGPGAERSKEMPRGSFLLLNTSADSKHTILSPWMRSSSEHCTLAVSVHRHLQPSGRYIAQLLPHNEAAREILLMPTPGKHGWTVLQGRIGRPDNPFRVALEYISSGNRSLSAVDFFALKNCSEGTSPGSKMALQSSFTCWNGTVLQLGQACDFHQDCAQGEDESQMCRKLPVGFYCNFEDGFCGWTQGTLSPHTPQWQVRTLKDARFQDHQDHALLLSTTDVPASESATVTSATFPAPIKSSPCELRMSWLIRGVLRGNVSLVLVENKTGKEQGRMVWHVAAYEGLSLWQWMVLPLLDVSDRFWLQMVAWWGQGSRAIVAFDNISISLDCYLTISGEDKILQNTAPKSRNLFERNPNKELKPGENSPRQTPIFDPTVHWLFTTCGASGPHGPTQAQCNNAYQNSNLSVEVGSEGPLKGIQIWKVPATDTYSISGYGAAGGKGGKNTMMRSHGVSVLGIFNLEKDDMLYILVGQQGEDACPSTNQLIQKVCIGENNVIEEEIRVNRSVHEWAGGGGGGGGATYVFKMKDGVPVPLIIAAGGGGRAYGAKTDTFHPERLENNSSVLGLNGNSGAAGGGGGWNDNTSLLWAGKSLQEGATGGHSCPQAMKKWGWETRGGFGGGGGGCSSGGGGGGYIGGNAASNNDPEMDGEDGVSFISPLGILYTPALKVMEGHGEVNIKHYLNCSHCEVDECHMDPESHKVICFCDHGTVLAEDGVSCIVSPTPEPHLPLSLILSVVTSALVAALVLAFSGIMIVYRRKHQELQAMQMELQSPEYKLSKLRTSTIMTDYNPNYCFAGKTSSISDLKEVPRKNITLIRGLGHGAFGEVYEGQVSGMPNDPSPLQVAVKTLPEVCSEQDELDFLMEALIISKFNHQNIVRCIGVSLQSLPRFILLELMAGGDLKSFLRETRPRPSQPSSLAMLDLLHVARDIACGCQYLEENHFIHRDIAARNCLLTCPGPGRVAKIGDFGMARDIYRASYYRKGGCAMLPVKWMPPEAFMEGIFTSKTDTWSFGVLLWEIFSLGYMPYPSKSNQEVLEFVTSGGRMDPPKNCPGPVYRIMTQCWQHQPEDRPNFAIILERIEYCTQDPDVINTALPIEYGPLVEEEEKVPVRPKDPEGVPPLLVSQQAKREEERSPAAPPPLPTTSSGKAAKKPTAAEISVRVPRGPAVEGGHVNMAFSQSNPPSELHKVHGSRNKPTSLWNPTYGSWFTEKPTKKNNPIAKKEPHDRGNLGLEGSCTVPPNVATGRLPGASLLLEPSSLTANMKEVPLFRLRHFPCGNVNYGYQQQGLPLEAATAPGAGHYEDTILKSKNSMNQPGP
- Assay explanation: ALK Kinase Assay (ELISA-type, time-resolved fluorescence)
- Assay type: biochemical
- Condition parameters: 1 μM ATP (Km level), 30 ng/ml ALK, 37° C., 15 minutes; read-out: ALK Activity (ALK kinase inhibition, IC50 class)
pIC50: −log10 of the molar value.

The molecule COc1cccc(C(=O)NCCC#N)c1Nc1nc(Nc2ccc3c(c2)C(C)(C)CCC(=O)N3)ncc1Cl on baculovirus-expressed ALK (Homo sapiens): pIC50 was < 5.00

The recorded pIC50 with baculovirus-expressed ALK (Homo sapiens) for COc1cc2c(cc1Nc1ncc(Cl)c(N[C@H]3[C@@H](C(N)=O)[C@@H]4C=C[C@H]3C4)n1)C(C)(C)CCC(=O)N2C was > 7.00

Value (pIC50, baculovirus-expressed ALK (Homo sapiens)) for record COc1cc2c(cc1Nc1ncc(Cl)c(N[C@@H]3CCCC[C@H]3NS(C)(=O)=O)n1)CCC(NCCO)CC2 (single isomer, unassigned) [Example 1095] = > 7.00

Simply: C#CCNC(=O)c1cccc(F)c1Nc1nc(Nc2ccc3c(c2)NC(=O)C(NC(=O)N2CCCC2)CC3(C)C)ncc1Cl (centres unmarked) , baculovirus-expressed ALK (Homo sapiens), pIC50 = 6.00 to 7.00

Given the molecule CNC(=O)c1ccc(Nc2nc(Nc3cc4c(cc3OC)CCN(Cc3ncco3)CC4)ncc2Cl)c(OC)c1 and test system baculovirus-expressed ALK (Homo sapiens), the measured pIC50 is > 7.00

Entry C#CCNC(=O)c1cccc(F)c1Nc1nc(Nc2ccc3c(c2)NC(=O)C(N)CC3(C)C)ncc1Cl (centres unmarked) : pIC50 on baculovirus-expressed ALK (Homo sapiens) = > 7.00

Measured pIC50 for this entry COc1cc2c(cc1Nc1ncc(Cl)c(Nc3ccccc3S(=O)(=O)C(C)C)n1)CCN(CC(=O)N(C)C)CC2 on baculovirus-expressed ALK (Homo sapiens): > 7.00

The recorded pIC50 with baculovirus-expressed ALK (Homo sapiens) for CNC(=O)c1cccc(F)c1Nc1nc(Nc2ccc3c(c2)NC(=O)CCO3)ncc1Cl was 6.00 to 7.00

// molecule CC(=O)N1CCC(=O)NCc2cc(Nc3ncc(Cl)c(Nc4ccccc4OCC#N)n3)ccc21 , assay baculovirus-expressed ALK (Homo sapiens), pIC50 value: > 7.00

The value of pIC50 recorded for CNC(=O)c1cc(Br)cc(F)c1Nc1nc(Nc2ccc3c(c2)NC(=O)CCC3)ncc1Cl when tested on baculovirus-expressed ALK (Homo sapiens) reads 6.00 to 7.00

The molecule COc1cc2c(cc1Nc1ncc(Cl)c(Nc3ccccc3S(=O)(=O)N3CCCC3)n1)CCN(Cc1ncco1)CC2 on baculovirus-expressed ALK (Homo sapiens): pIC50 was > 7.00

Bench note, baculovirus-expressed ALK (Homo sapiens): CN1C(=O)CCC(C)(C)c2cc(Nc3ncc(Cl)c(Nc4ccccc4S(C)(=O)=O)n3)ccc21 , pIC50 reads > 7.00

Fill in: baculovirus-expressed ALK (Homo sapiens) pIC50 for COCCN1CCc2cc(Nc3ncc(Cl)c(Nc4ccccc4S(=O)(=O)N(C)C)n3)c(OC)cc2CC1 = > 7.00

Known value: baculovirus-expressed ALK (Homo sapiens) pIC50 of the molecule N#CCNC(=O)c1cccc(F)c1Nc1nc(Nc2ccc3c(c2)CCCC(=O)N3)ncc1Cl equals > 7.00

# COc1ccc2c(c1Nc1ncc(Cl)c(N[C@@H]3CCCC[C@H]3NS(C)(=O)=O)n1)CCC(NCC(F)F)CC2 (single isomer, unassigned) [Example 1075] with baculovirus-expressed ALK (Homo sapiens): pIC50 is 5.00 to 6.00

Entry COCCN1CCc2ccc(Nc3ncc(Cl)c(Nc4c(F)cccc4OCCCOCc4ccccc4)n3)cc2CC1 under baculovirus-expressed ALK (Homo sapiens) had pIC50 of 6.00 to 7.00

baculovirus-expressed ALK (Homo sapiens) data for COc1cc2c(cc1Nc1ncc(Cl)c(N[C@@H]3CCCC[C@H]3NS(C)(=O)=O)n1)CCN(CC(=O)N1CCCC1)CC2 ; its pIC50: > 7.00

Lab note: molecule COc1ccc2c(c1Nc1ncc(Cl)c(Nc3ccccc3-n3cccn3)n1)CCC(NCC(F)F)CC2 (centres unmarked) tested on baculovirus-expressed ALK (Homo sapiens); recorded pIC50 was 6.00 to 7.00

Case COc1cc2c(cc1Nc1ncc(Cl)c(Nc3ccccc3S(=O)(=O)N3CC[C@@H](O)C3)n1)CCN(CC(=O)N(C)C)CC2 , baculovirus-expressed ALK (Homo sapiens), pIC50 recorded as > 7.00

The value of pIC50 recorded for NC(=O)[C@@H]1[C@H](Nc2nc(Nc3ccc4c(c3)CCC(O)CC4)ncc2Cl)[C@H]2C=C[C@@H]1C2 (some centres unmarked) when tested on baculovirus-expressed ALK (Homo sapiens) reads > 7.00

----------
Kindly supply the reported IC50 values for the records listed here.
- Study system: baculovirus-expressed ALK (Homo sapiens)
- Construct: host or cells: baculovirus expression system
- Assay explanation: ALK Kinase Assay (ELISA-type, time-resolved fluorescence)
- Format: biochemical
- Condition parameters: 1 μM ATP (Km level); read-out: ALK Activity (ALK Kinase Inhibition, IC50)

get_value(item= COc1cc2c(cc1Nc1ncc(F)c(NC3C4C=CC(C4)C3C(N)=O)n1)CCN(CC(F)F)CC2 (stereo not shown) [Example 769] , readout=IC50) returns 100 to 1000 nM

Value of IC50 reported for the molecule Cn1cnc2c(Nc3nc(Nc4ccc5c(c4)C(C)(C)CCC(=O)N5)ncc3Cl)cccc21 [Example 1005] is < 100 nM

Quick note, IC50 for CCN1CCN(CC)c2cc(Nc3nc(Nc4cc5c(cc4OC)CCN(CC(=O)N(C)C)CC5)ncc3Cl)ccc2C1=O [Example 724] landed at < 100 nM

Value of measured IC50 for the entry COc1cccnc1-c1ccccc1Nc1nc(Nc2ccc3c(c2)C(C)(C)CCC(=O)N3)ncc1Cl [Example 989] : < 100 nM

Given item COCCN1CCc2ccc(Nc3ncc(C(F)(F)F)c(N[C@H]4[C@@H](C(N)=O)[C@@H]5C=C[C@H]4C5)n3)cc2CC1 [Example 934] , the value recorded as its IC50 is < 100 nM

The reported IC50 of the molecule CCN1C(=O)CCCc2c1ccc(Nc1ncc(Cl)c(NC3C4C=CC(C4)C3C(=O)NC(C)C)n1)c2OC (stereo not shown) [Example 603] was 100 to 1000 nM

Short answer for CNC(=O)c1ccccc1Nc1nc(Nc2ccc3c(c2)CCC(N2CCOCC2)CC3)ncc1C(F)(F)F (stereo not shown) [Example 923] : IC50 was < 100 nM

// CCNC(=O)c1ccccc1Nc1nc(Nc2cc3c(cc2OC)CCN(CC(C)(F)F)CC3)ncc1Cl [Example 788] : IC50 value = < 100 nM

Lab note: COc1cc2c(cc1Nc1ncc(Cl)c(Nc3ccccc3S(=O)(=O)N3CCN(C)CC3)n1)CCN(CC(=O)N(C)C)CC2 [Example 837] gave IC50 of < 100 nM

The recorded IC50 for entry COc1cc2c(cc1Nc1ncc(Cl)c(Nc3ccccc3S(=O)(=O)N3CCOCC3)n1)CCN(CC(=O)N(C)C)CC2 [Example 836] equals < 100 nM

For this molecule ( COc1cc2c(cc1Nc1ncc(Cl)c(Nc3ccc(N4CCN(C)CC4)cc3OC)n1)CCN(CC(F)F)CC2 [Example 764] ), measured IC50 is < 100 nM

Note to self: IC50 recorded for CCN1C(=O)CCC(C)(C)c2ccc(Nc3ncc(Cl)c(Nc4ccc(N5CCOCC5)cc4S(=O)(=O)N(C)C)n3)cc21 [Example 851] was < 100 nM

response.value for CN1CCN(C2CCc3ccc(Nc4ncc(Cl)c(N[C@H]5[C@@H](C(N)=O)[C@@H]6C=C[C@H]5C6)n4)cc3CC2)CC1 (stereo partly shown) [Example 892] (field: IC50) = < 100 nM

The molecule listed as COc1cc2c(cc1Nc1ncc(F)c(Nc3ccc(N4CCOCC4)cc3OC)n1)CCN(CC(=O)OC(C)C)CC2 [Example 811] has a reported IC50 of 100 to 1000 nM

For this molecule ( COc1cc2c(cc1Nc1ncc(Cl)c(N[C@H]3[C@@H](C(N)=O)[C@@H]4C=C[C@H]3C4)n1)N(C)C(=O)CNC2 [Example 743] ), measured IC50 is < 100 nM

Value of IC50 reported for the molecule COCCNC1CCc2ccc(Nc3ncc(Cl)c(N[C@@H]4CCCC[C@H]4NS(C)(=O)=O)n3)c(OC)c2CC1 (single isomer, unassigned) [Example 694] is < 100 nM

So for COc1ccc(Nc2nc(Nc3cc4c(cc3OC)CCN(C(=O)C3COCCO3)CC4)ncc2Cl)c(-n2cccn2)c1 (stereo not shown) [Example 633] , the logged IC50 turned out to be < 100 nM

Value of measured IC50 for the entry CN(C)S(=O)(=O)c1ccccc1Nc1nc(Nc2ccc3c(c2)CCN(CC2COCCO2)CC3)ncc1Cl (stereo not shown) [Example 641] : < 100 nM

For this molecule ( CNC(=O)c1cccc(F)c1Nc1nc(Nc2ccc3c(c2)CCC(N2CCN(C)CC2)CC3)ncc1Cl (racemic) [Example 899] ), measured IC50 is < 100 nM

// field: IC50; key: O=C1CCCc2cc(Nc3ncc(Cl)c(Nc4ccccc4-c4cnco4)n3)ccc2N1 [Example 997] ; value = 100 to 1000 nM

// IC50 value for NC(=O)[C@@H]1[C@H](Nc2nc(Nc3ccc4c(c3)CCC(N3CCOCC3)CC4)ncc2Cl)[C@H]2C=C[C@@H]1C2 (single isomer, unassigned) [Example 681] : < 100 nM

IC50 for CNC(=O)c1ccccc1Nc1nc(Nc2ccc3c(c2OC)CCC(=O)CC3)ncc1Cl [Example 868] is < 100 nM

Just so you know, measured IC50 for COCCNC1CCc2ccc(Nc3ncc(Cl)c(N[C@@H]4CCCC[C@H]4NS(C)(=O)=O)n3)c(OC)c2CC1 (single isomer, unassigned) [Example 693] came out at < 100 nM

COCCN1CCc2cc(Nc3ncc(Cl)c(Nc4ccc(Cl)cc4S(=O)(=O)N(C)C)n3)c(OC)cc2CC1 [Example 839] yielded IC50 of < 100 nM

IC50 in this record for COCCN1CCc2cc(Nc3ncc(Cl)c(Nc4ccccc4-c4ncccc4C)n3)c(OC)cc2CC1 [Example 987] : < 100 nM

Field IC50 (entry CC(C)N1CCNC(=O)c2ccc(Nc3ncc(Cl)c(N[C@@H]4CCCC[C@H]4NS(C)(=O)=O)n3)cc21 [Example 499] ) reads 100 to 1000 nM

Entry CCN1CCN(CC)c2cc(Nc3nc(Nc4cc5c(cc4OC)CCN(CC(=O)N(C)C)CC5)ncc3Cl)ccc2C1 [Example 723] ; IC50 = < 100 nM

Lookup result for COc1cc(N2CCOCC2)ccc1Nc1nc(Nc2ccc3c(c2OC)CCC(N2CCOCC2)CC3)ncc1Cl (stereo not shown) [Example 894] ; measured IC50: < 100 nM
